Taken from the supplement of paper PMC6555819.

tested on: THRa:RXRa (NR concentration 90 nM, RXRa partner concentration 90 nM); assay: PBM binding z-score (relative to random genomic background probes); higher = stronger binding; sequences stand for … in GC…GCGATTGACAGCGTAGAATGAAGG
Given measured PBM binding z-score, output 1 (yes) if it is greater than or equal to 4 and 0 (no) if not.

Past entries and their recorded results:
{"ITEM_SEQUENCE": "CTCGAAAGGTCGGTTGAGGTGAGTCTACGGATAA", "CLASS": "1 (yes)"}
{"ITEM_SEQUENCE": "AATACAGGGTCATCGTAGGCCAGATTACGCACAG", "CLASS": "1 (yes)"}
{"ITEM_SEQUENCE": "CATACTAGGTCAAGAGGTCAAAGTCCGCTTCCCG", "CLASS": "1 (yes)"}
{"ITEM_SEQUENCE": "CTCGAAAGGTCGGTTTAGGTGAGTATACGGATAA", "CLASS": "1 (yes)"}

Problem: Check the entry "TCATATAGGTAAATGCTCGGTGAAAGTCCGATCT" : does PBM binding z-score equal or exceed 4?
Solution: 0 (no)
